B1: OAS1 (parent)
chain: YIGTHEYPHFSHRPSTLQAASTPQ

Variants of: B1
Experiment: protein stability index of a GFP-peptide fusion (GPS, HEK-293T) (PSI 1-6); higher = more stable;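 note: lentivirally expressed fusions sorted by FACS into six bins by GFP to DsRed ratio, PSI derived from sequencing read proportions per bin multiplied by bin number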
Conditions: c terminus: a fixed tail appended
Each item that follows carries a reported protein stability index.
Give your answer as a number; write no unit.

YIGTHEYPHFSHRPSTLQQASTPQ [A19Q]    2.04
WIGTHEYPHFSHRPSTLQAASTPQ [Y1W]    2.73
YILTHEYPHFSHRPSTLQAASTPQ [G3L]    2.19
YIGTHEYPNFSHRPSTLQAASTPQ [H9N]    2.4

Prompt line: Complete the entry with protein stability index for YIGTHEYPHFSHRPSTLQAISTPQ [A20I]
Response line: 2.19

Prompt line: Complete the entry with protein stability index for YIGTHEYPHFSHRPSTLQAAMTPQ [S21M]
Response line: 1.94

Prompt line: Complete the entry with protein stability index for YIGTHEYPHFSYRPSTLQAASTPQ [H12Y]
Response line: 1.92

Prompt line: Complete the entry with protein stability index for YVGTHEYPHFSHRPSTLQAASTPQ [I2V]
Response line: 2.61

Prompt line: Complete the entry with protein stability index for YICTHEYPHFSHRPSTLQAASTPQ [G3C]
Response line: 1.97

Prompt line: Complete the entry with protein stability index for YIGTHEYPHFSHRPWTLQAASTPQ [S15W]
Response line: 3.2

Prompt line: Complete the entry with protein stability index for YIGTHEYPHFRHRPSTLQAASTPQ [S11R]
Response line: 2.09

Prompt line: Complete the entry with protein stability index for YIGTHEYPHFSHRPSTLMAASTPQ [Q18M]
Response line: 1.74

Prompt line: Complete the entry with protein stability index for YIGTHEYPTFSHRPSTLQAASTPQ [H9T]
Response line: 2.09

Prompt line: Complete the entry with protein stability index for YIGTHERPHFSHRPSTLQAASTPQ [Y7R]
Response line: 2.12

Prompt line: Complete the entry with protein stability index for YIGTHEYPHFSHRTSTLQAASTPQ [P14T]
Response line: 1.98
